Assay: Inhibition of sigma2 receptor (unknown origin)
Set-up: species or system Homo sapiens
MEASURED_PARAMETER: Ki (µM)
Quick reminder: number only, in µM, skip the unit.

q: Which Ki is listed for Cc1cc(F)ccc1[C@H]1C[C@@H](N2CCN3C(=O)CC[C@H]3C2)CCN1C(=O)N(C)[C@H](C)c1cc(C(F)(F)F)cc(C(F)(F)F)c1 [ORVEPITANT] ?
a: 3.26

* * *

Target: Substance-P receptor (Homo sapiens, UniProt P25103)
Sequence (P25103 whole entry): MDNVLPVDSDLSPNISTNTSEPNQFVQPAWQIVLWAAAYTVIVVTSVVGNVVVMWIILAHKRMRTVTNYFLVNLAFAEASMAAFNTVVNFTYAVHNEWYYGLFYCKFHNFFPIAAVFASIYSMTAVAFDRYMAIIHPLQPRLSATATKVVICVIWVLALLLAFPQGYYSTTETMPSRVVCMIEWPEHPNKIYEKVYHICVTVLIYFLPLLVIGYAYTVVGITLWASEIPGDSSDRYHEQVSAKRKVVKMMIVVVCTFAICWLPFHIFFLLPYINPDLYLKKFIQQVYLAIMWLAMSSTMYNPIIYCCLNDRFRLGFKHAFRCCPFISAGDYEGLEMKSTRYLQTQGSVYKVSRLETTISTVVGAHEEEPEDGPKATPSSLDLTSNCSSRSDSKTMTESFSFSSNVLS
Assay: Displacement of [3H]SP from human recombinant NK1 receptor expressed in CHO cells after 40 mins by scintillation counting analysis
Ki reference
Quick reminder: number only, in pM, skip the unit.

>>> value_reported("Cc1cc(F)ccc1[C@H]1C[C@@H](N2CCN3C(=O)CC[C@@H]3C2)CCN1C(=O)N(C)[C@H](C)c1cc(C(F)(F)F)cc(C(F)(F)F)c1")
200
>>> value_reported("Cc1cc(F)ccc1[C@H]1C[C@H](N2CCN3C(=O)CC[C@@H]3C2)CCN1C(=O)N(C)[C@H](C)c1cc(C(F)(F)F)cc(C(F)(F)F)c1")
138
>>> value_reported("Cc1cc(F)ccc1[C@H]1C[C@H](N2CCN3C(=O)CC[C@H]3C2)CCN1C(=O)N(C)[C@H](C)c1cc(C(F)(F)F)cc(C(F)(F)F)c1")
64.6

q: Which Ki is listed for Cc1cc(F)ccc1[C@H]1C[C@@H](N2CCN3C(=O)CC[C@H]3C2)CCN1C(=O)N(C)[C@H](C)c1cc(C(F)(F)F)cc(C(F)(F)F)c1 [ORVEPITANT] ?
a: 63.1

The reported numbers originate from ChEMBL document CHEMBL2440072.
